Biological target: T1, Human VE-PTP (HPTP-β) containing first eight FN3 repeats with C-terminal His6 tag (Human ½ VE-PTP ECD) (human, UniProt P23467 23-820)
T1 construct: Produced in HEK293 cells and purified by the His tag; it was not cut off; also called Human Beta ½ ECD
T1 sequence: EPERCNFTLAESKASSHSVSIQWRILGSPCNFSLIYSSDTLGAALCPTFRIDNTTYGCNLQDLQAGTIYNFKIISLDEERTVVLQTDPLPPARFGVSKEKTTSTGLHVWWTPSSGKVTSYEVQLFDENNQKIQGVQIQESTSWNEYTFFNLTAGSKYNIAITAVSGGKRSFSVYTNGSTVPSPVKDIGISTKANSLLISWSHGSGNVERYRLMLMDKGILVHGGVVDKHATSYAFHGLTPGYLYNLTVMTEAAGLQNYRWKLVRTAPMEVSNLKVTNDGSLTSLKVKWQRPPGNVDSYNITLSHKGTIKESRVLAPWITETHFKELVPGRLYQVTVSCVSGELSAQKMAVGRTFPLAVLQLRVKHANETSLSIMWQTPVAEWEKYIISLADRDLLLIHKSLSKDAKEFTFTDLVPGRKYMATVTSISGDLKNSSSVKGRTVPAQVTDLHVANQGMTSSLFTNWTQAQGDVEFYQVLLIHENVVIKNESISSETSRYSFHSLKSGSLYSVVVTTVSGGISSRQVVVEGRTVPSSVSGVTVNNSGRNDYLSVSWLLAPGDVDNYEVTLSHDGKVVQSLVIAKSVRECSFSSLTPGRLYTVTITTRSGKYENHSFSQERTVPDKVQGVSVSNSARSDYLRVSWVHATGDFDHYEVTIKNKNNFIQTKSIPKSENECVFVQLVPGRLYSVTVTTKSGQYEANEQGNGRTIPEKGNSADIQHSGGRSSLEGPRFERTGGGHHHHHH
Test: SPR (Biacore 3000), antibody captured on anti-human IgG, antigen as analyte 100 nM (single concentration)
Description: Samples of each variant were further assessed by Biacore analysis to determine the binding affinity. Antibody binding experiments were performed on Biacore 3000™ at 25° C. Assay buffer: 10 mM HEPES buffer (pH 7.4), 150 mM NaCl, 3 mM EDTA, 0.05% P20 (polyoxyethylenesorbitan). […] Conjugation buffer: 10 mM sodium acetate buffer (pH 5). […] Binding of the antigen to the antibodies was monitored in real time. The KD was determined from the observed kₒₙ and koff values. […]
Overview of reported kon across a group of binders:
Give the quantity in M⁻¹ s⁻¹, number only.

See these solved cases before continuing.
humanized R15E6 variant HC3LC2 (antibody, human IgG4 S228P, kappa, V domains shown, Human IgG4 (S228P) / kappa, expressed in CHO cells; Signal peptides left out by range; also called VH3-VL2) VH: EVQLVESGGGLVQPGRSLRLSCTASGFTFNANAMNWVRQAPGKGLEWVGRIRTKSNNYATYYAGSVKDRFTISRDDSKNIAYLQMNSLKTEDTAVYYCVRDYYGSSAWITYWGQGTLVTVSS VL: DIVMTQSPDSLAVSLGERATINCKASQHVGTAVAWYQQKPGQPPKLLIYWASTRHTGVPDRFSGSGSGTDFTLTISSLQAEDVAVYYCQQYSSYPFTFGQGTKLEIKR; 205000
humanized R15E6 variant HC2LC2 (antibody, human IgG4 S228P, kappa, V domains shown, Human IgG4 (S228P) / kappa, expressed in CHO cells; Signal peptides left out by range; also called VH2-VL2) VH: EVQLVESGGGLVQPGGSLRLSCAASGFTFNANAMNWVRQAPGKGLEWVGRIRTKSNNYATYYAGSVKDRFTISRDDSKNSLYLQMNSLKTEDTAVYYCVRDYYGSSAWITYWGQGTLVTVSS VL: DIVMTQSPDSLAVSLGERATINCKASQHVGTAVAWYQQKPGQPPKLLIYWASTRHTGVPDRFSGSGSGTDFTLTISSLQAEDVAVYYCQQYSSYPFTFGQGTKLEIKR; 149000
humanized R15E6 variant HC2LC4 (antibody, human IgG4 S228P, kappa, V domains shown, Human IgG4 (S228P) / kappa, expressed in CHO cells; Signal peptides left out by range; also called VH2-VL4) VH: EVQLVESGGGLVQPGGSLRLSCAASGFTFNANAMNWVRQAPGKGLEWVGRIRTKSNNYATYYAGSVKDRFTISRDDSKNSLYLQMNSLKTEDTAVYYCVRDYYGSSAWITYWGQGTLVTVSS VL: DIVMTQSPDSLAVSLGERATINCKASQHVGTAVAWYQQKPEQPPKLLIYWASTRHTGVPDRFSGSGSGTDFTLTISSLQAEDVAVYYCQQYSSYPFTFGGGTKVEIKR; 51500
humanized R15E6 variant HC1LC4 (antibody, human IgG4 S228P, kappa, V domains shown, Human IgG4 (S228P) / kappa, expressed in CHO cells; Signal peptides left out by range; also called VH1-VL4) VH: EVQLVESGGGLVQPGGSLKLSCAASGFTFNANAMNWVRQASGKGLEWVGRIRTKSNNYATYYAGSVKDRFTISRDDSKNTAYLQMNSLKTEDTAAYYCVRDYYGSSAWITYWGQGTLVTVSS VL: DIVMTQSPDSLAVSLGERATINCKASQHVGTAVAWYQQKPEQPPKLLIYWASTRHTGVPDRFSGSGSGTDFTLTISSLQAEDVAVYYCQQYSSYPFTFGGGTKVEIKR; 179000

// below: kon requested for another binder
Query: So what does the record say about kon for humanized R15E6 variant HC2LC1 (antibody, human IgG4 S228P, kappa, V domains shown, Human IgG4 (S228P) / kappa, expressed in CHO cells; Signal peptides left out by range; also called VH2-VL1) VH: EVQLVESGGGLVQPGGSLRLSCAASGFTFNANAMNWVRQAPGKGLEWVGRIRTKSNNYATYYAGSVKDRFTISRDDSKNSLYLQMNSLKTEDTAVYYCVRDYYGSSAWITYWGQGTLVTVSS VL: DVVMTQSPSFLSASVGDRVTITCKASQHVGTAVAWYQQRPGKAPKLLIYWASTRHTGVPSRFSGSGSGTEFTLTISSLQPEDFATYFCQQYSSYPFTFGGGTKLEIKR ?
Reply: 49800
